Data origin, for the record: ChEMBL document CHEMBL1201862

System: UO-31
assay.details: NCI tumour cell line growth inhibition, 48 h
Where a name gives a salt, the structure may show the parent alone. Calls of active or inactive are those of the source. Rule as the data show it: active = GI50 up to about 1.1 µM and inactive = higher.
Outcome codes: y = active, n = inactive

molecule: CCOC(=O)NC(C(F)(F)F)(C(F)(F)F)P(=O)(OCC(C)C)OCC(C)C
label.class: n
//
molecule: CCOCN/C(N)=N\C#N
label.class: n
//
molecule: COc1ccc(Cc2nccc3cc(OC)c(OC)cc23)cc1OC [PAPAVERINE HYDROCHLORIDE]
label.class: n
//
molecule: COC(=O)CC1(O)C(=O)OCc2c1cc1n(c2=O)Cc2c-1nc1ccccc1c2OC (stereo not given)
label.class: y
//
molecule: Cc1nc(O)nc(CC(O)(c2ccccc2)c2ccccc2)c1-c1ccccc1
label.class: n
//
molecule: O=C1c2cc(CCl)sc2C(=O)c2ccsc21
label.class: y
//
molecule: Cc1ccc(/N=N/c2c(O)ccc3ccccc23)cc1
label.class: n
//
molecule: CN(c1cn(C2CC[C@@H](CO)O2)c(=O)[nH]c1=O)C1CCCCC1 (stereo not given in full)
label.class: n
//
molecule: CSc1nsc(-c2ccccc2)[s+]1.[O-][Cl+3]([O-])([O-])[O-]
label.class: n
//
molecule: N/N=C(\C(=O)Nc1ccc(Cl)cc1Cl)C(c1cnc2ccccc2n1)[N+](=O)[O-] (stereo not given)
label.class: n

====

Each entry below carries its reported GI50.
System: LOX IMVI
assay.details: NCI tumour cell line growth inhibition, 48 h
Active and inactive are the calls of the source. Cut-off read from the data, not from the text of the source: active = GI50 up to about 1.1 µM and inactive = higher.
observation.type: GI50

molecule: O=C1C(Cl)C(c2ccc(Cl)cc2)N1n1cnc2ccccc2c1=O (stereo unspecified)
observed: 70.5 µM (inactive)
--
molecule: Cn1c(=O)cc(/N=N\c2ccc(Cl)c(Cl)c2)[nH]c1=O
observed: 19.2 µM (inactive)
--
molecule: O=C(N/N=C(COc1ccc([N+](=O)[O-])cc1)\N=C\c1ccncc1)c1ccncc1
observed: 0.564 µM (active)
--
molecule: N=C(NNS(=O)(=O)c1ccccc1)Oc1ccc(Br)cc1Br
observed: > 100 µM (inactive)
--
molecule: CC(=O)/C(=C/NC(=S)N/N=C1\C(=O)Nc2ccccc21)C(=O)Nc1ccccc1C
observed: 63.8 µM (inactive)
--
molecule: CCOC(=O)c1csc(NC(=O)CCN2CCCC2)n1
observed: > 100 µM (inactive)
--
molecule: COc1cccc2c1[C@]1(O)C(O)CCCC21 (stereo partly specified)
observed: > 100 µM (inactive)
--
molecule: CC(C)(C)S(=O)OC12CC3CC(CC(C3)C1)C2 (stereo unspecified)
observed: > 100 µM (inactive)
--
molecule: CC(C)N1CCCOC(c2ccc([N+](=O)[O-])cc2)O1 (stereo unspecified)
observed: > 100 µM (inactive)
--
molecule: O=C1NC(Nc2ccccc2)=NC(C(F)(F)F)(C(F)(F)F)N1
observed: 37.2 µM (inactive)
--
molecule: O=C1CC2(CCC(O)(c3cccs3)C(C(=O)c3cccs3)C2)C(=O)c2ccccc2N1 (stereo unspecified)
observed: 89.3 µM (inactive)

====

Test system: SK-MEL-28
assay.details: NCI tumour cell line growth inhibition, 48 h
The source made the active and inactive calls. Rule as the data show it: active = GI50 up to about 1.1 µM and inactive = higher.
Outcome codes: active, inactive

molecule: CC1=CC(=O)[C@@H](O)[C@]2(C)[C@H]3[C@@]4(O)OC[C@]35[C@H]([C@@H](C)[C@H]4O)[C@@H](O)C(=O)O[C@@H]5C[C@@H]12
study.target: SK-MEL-28
label.class: active

molecule: Cc1nc2c(n1CC(C)(C)C)C(=O)c1ccccc1C2=O
study.target: SK-MEL-28
label.class: inactive

molecule: CC(=O)Nc1oc(C)c(C)c1S(=O)(=O)c1ccc(Cl)cc1
study.target: SK-MEL-28
label.class: inactive

molecule: CNC(=O)C(C)Oc1ccc(OCC2CCCCC2)cc1 (stereo not given)
study.target: SK-MEL-28
label.class: inactive

molecule: COc1cc([C@@H]2c3cc(O)c(OC)cc3C=C(C(N)=O)[C@H]2C(N)=O)ccc1O
study.target: SK-MEL-28
label.class: inactive

molecule: O=C(/C=C/c1cccs1)c1ccc(Cl)cc1
study.target: SK-MEL-28
label.class: inactive

molecule: Cc1ncc([N+](=O)[O-])n1CCNS(=O)(=O)CCCn1ccnc1[N+](=O)[O-]
study.target: SK-MEL-28
label.class: inactive

molecule: OC1CC1Sc1ccccc1 (stereo not given)
study.target: SK-MEL-28
label.class: inactive

molecule: COc1ccc(OC)c2sc(N3C(=O)/C(=C/c4cccc(Oc5ccccc5)c4)N=C3c3ccccc3)nc12
study.target: SK-MEL-28
label.class: inactive

molecule: O=C1NC(N2CCCCC2)=N/C1=C\c1cccs1
study.target: SK-MEL-28
label.class: inactive

====

Each entry below carries its reported GI50.
System: MOLT-4
assay.details: NCI tumour cell line growth inhibition, 48 h
Active and inactive are the calls of the source. Cut-off read from the data, not from the text of the source: active = GI50 up to about 1.1 µM and inactive = higher.

compound: C/C(=N/NC(N)=S)c1ccc2ccccc2c1
study.target: MOLT-4
GI50: 21.9 µM (inactive)

compound: C=CCCCCCCCCC(=O)O
study.target: MOLT-4
GI50: 110 µM (inactive)

compound: COC(OC)C1OC(CO)C(n2cc(C)c(=O)[nH]c2=O)C1O (stereo unspecified)
study.target: MOLT-4
GI50: > 100 µM (inactive)

compound: COc1ccc(/C(C#N)=C2/O/C(=N/N)C(c3ccc(OC)c(OC)c3)C2=O)cc1OC (stereo unspecified)
study.target: MOLT-4
GI50: > 100 µM (inactive)

compound: COc1ccc(N2C(=O)C3c4[nH]c5ccc(OC)cc5c4C4CCC(C(C)C)CC4C3C2=O)cc1 (stereo unspecified)
study.target: MOLT-4
GI50: 28.8 µM (inactive)

compound: C(=C\c1ccccc1)/Cn1nc(-c2ccccc2)nc1-c1cnccn1
study.target: MOLT-4
GI50: > 100 µM (inactive)

====

Test system: HCT-116
assay.details: NCI tumour cell line growth inhibition, 48 h
Active and inactive are the calls of the source. Cut-off read from the data, not from the text of the source: active = GI50 up to about 1.1 µM and inactive = higher. Starred links: 1 amine or outer side, 2 acyl side, 3 side chain; linkers in the order of their positions; H or OH if unused. Residues, ends and D or L forms follow the SMILES beside them. *: point of attachment. γGlu = O=C(O)[CH](CCC(=O)[*:2])N[*:1]; NHOH = ON*
Outcome codes: active, inactive

compound: CC(=O)Nc1nc(Cl)cc(NCC2(CO)CCC2)n1
label.class: inactive

compound: CC(=O)N[C@@H](Cc1ccc(O)cn1)C(=O)NCc1ccc2c(c1)OCO2
label.class: inactive

compound: Cc1cc2ccc(OC(=O)c3ccc(NC(=N)N)cc3)cc2oc1=O
label.class: inactive

compound: CCN(CCCl)CCCCCNc1c2ccccc2nc2ccc(OC)cc12
label.class: active

compound: CC1(C)OCC(C2OC3OC(C)(C)OC3C2N)O1 (stereo not drawn)
label.class: inactive

compound: Cc1ccc(S(=O)(=O)CC2(Br)CCc3ccccc3C2=O)cc1 (stereo not drawn)
label.class: inactive

compound: COc1cc([C@@H]2c3cc(O)c(OC)cc3C=C(C(N)=O)[C@H]2C(N)=O)ccc1O
label.class: inactive

compound: O=C1CC2(CCC(O)(c3cccs3)C(C(=O)c3cccs3)C2)C(=O)c2ccccc2N1 (stereo not drawn)
label.class: inactive

compound: O=C(N/N=C(COc1ccc([N+](=O)[O-])cc1)\N=C\c1ccncc1)c1ccncc1
label.class: inactive

compound: Cc1nc(N)c(N2CCN(CN)CC2)c(O)n1
label.class: inactive

compound: c1ccc2c(c1)nnn1c3cnccc3nc21
label.class: inactive

compound: CN(c1cn(C2CC[C@@H](CO)O2)c(=O)[nH]c1=O)C1CCCCC1 (stereo partly drawn)
label.class: inactive

compound: Cc1nc2nnc(C)n2c2c1C(=O)Nc1ccccc1N2
label.class: inactive

compound: COC(=O)[C@H](Cc1ccccc1)NC(=O)c1ccc(CNC(=O)/C=C/c2cccc(Oc3ccccc3)c2)cc1
label.class: inactive

compound: O=[N+]([O-])c1ccc(-c2nn3c(C45CC6CC(CC(C6)C4)C5)nnc3s2)c(Cl)c1
label.class: inactive

compound: CC(C)N1CCCOC(c2ccc([N+](=O)[O-])cc2)O1 (stereo not drawn)
label.class: inactive

compound: CCOc1cc2c(cc1O)/C(=N\OC)C[C@@H]1[C@@H]2CC[C@]2(C)[C@@H](O)CC[C@@H]12
label.class: active

compound: CC(C)(C)S(=O)OC12CC3CC(CC(C3)C1)C2 (stereo not drawn)
label.class: inactive

compound: CN(C)CCSc1nccc(-c2cc3ccccc3s2)n1
label.class: inactive

compound: C=C1[C@H](OCC(C)C)[C@@H](O)[C@@H](OC(=O)c2cccnc2)C(C)(C)/C=C/[C@H](C)[C@H](OC(C)=O)[C@@]2(O)C[C@@](C)(OC(C)=O)[C@H](OC(=O)c3ccccc3)[C@@H]2[C@H]1OC(C)=O
label.class: inactive

compound: O=C1Nc2ccc(S(=O)(=O)O)cc2/C1=C1/Nc2ccc(Br)cc2C1=O
label.class: inactive

compound: CC(=O)c1ccc(NCc2cc(O)ccc2O)cc1
label.class: inactive

compound: COc1c(CC(=O)c2ccccc2)c2ccccc2n1C(C)=O
label.class: inactive

compound: O=C(C[C@H](NC(=O)OCc1ccccc1)C(=O)NC1Cc2ccccc2OC1=O)OCc1ccccc1 (stereo partly drawn)
label.class: inactive

compound: Cn1c(=O)c2[nH]c(/N=N\n3ccc4ccccc43)nc2n(C)c1=O
label.class: inactive

compound: CC(C)=CCCC(C)CCOS(=O)C(F)(F)F (stereo not drawn)
label.class: inactive

compound: COc1ccc(-c2cc(-c3ccco3)c(C#N)c(=S)n2C2OC(COC(C)=O)C(OC(C)=O)C(OC(C)=O)C2OC(C)=O)cc1 (stereo not drawn)
label.class: inactive

compound: CCOC(=O)CNC(=O)C(CCC(=O)NO)NC(=O)CCC(N)C(=O)O (stereo not drawn) (γGlu-Glu(NHOH)-Gly-OEt; configuration not given here)
label.class: inactive
